assay: Pharmacokinetics in rats after oral administration; assay type: in vivo; conditions: male, SD, blood, rat, about 5 mg·kg^−1 of each component as free base, read-out: AUC0-inf of MEK162
reported-endpoint: AUC(0-inf) (ng·h/mL)

| smi | reading-unit | reported |
| --- | --- | --- |
| Cn1cnc2c(F)c(Nc3ccc(Br)cc3F)c(C(=O)NOCCO)cc21 | ng·h/mL | 11300 |

---

assay: Pharmacokinetics in rats after oral administration; format: in vivo; conditions: male, SD, blood, rat, about 5 mg·kg^−1 of each component as free base, read-out: maximum concentration of blood drug (Cmax) of MEK162
reported-endpoint: Cmax (ng/mL)

| smi | reported |
| --- | --- |
| Cn1cnc2c(F)c(Nc3ccc(Br)cc3F)c(C(=O)NOCCO)cc21 | 3240 |

Reference for the values: patent US10323035B2
